compounds and their reported % Intact 18F-compound, Serum 2 h
assay: Stability in rat serum at 37° C., radio-HPLC; format: in vitro ADME; conditions: rat serum, 37° C., 2 h

COMPOUND | % Intact 18F-compound, Serum 2 h (%)
COc1cc(NCCCF)cc(OC)c1NC(=O)c1ccc(Cc2cc3c(cc2C)CCCC3(C)C)o1 [[^18F]SB-001-RS] | 88.5
COc1cc(NCCCF)cc(OC)c1NC(=O)c1ccc(Oc2cc3c(cc2C)CCC3(C)C)o1 [[^18F]SB-002-RS] | 97.5
COc1cc(OCCF)cc(OC)c1NC(=O)c1ccc(Oc2cc3c(cc2C)CCC3(C)C)o1 [[^18F]SB-004-RS] | 97.3
COc1cc(OCCF)cc(OC)c1NC(=O)c1ccc(Cc2cc3c(cc2C)CCCC3(C)C)o1 [[^18F]SB-003-RS] | 91.1
